- assay_explanation: qHTS of pediatric cancer cell lines to identify multiple opportunities for drug repurposing: Primary screen for BT-37 cells (AID 1347094); note: potency is the fitted concentration of half-maximal effect
- protocol_conditions: BT-37 viability, CellTiter-Glo luminescence, 48 h; series mostly up to 57.3 µM
Inconclusive results are not listed. Active and inactive are the calls of the source. Calls come from the whole dose curve; as a rule, active = well fitted cell-killing curve with a large enough effect; inconclusive = small, poorly fitted or top-dose-only effect; inactive = flat fitted curve, though single readings scatter.

[
  {
    "sample_smiles": "CN1CCN(CCOc2cc(OC3CCOCC3)c3c(Nc4c(Cl)ccc5c4OCO5)ncnc3c2)CC1",
    "Potency": "7.69 µM (active)"
  },
  {
    "sample_smiles": "CC1=C(/C=C/C(C)=C/C=C/C(C)=C/C(=O)Nc2ccc(O)cc2)C(C)(C)CCC1",
    "Potency": "15.5 µM (active)"
  },
  {
    "sample_smiles": "CC(=O)Nc1ccc([C@H](C)C(=O)Nc2ncc(C(C)C)s2)cc1",
    "Potency": "4.32 µM (active)"
  }
]
